assay: Compound was tested for inhibition against Creatine kinase (CK)
measuredAttribute: Ki (mM)
Give bare numbers, in mM.

CN(CC(=O)O)C(=N)CP(=O)(O)O: 1.4

Lookup: Which value of Ki has been reported for N=C(CP(=O)(O)O)NCCC(=O)O in the records?
Found: 37
